Sourced from ChEMBL document CHEMBL1156861

- METHOD DESCRIPTION: Selectivity ratio of Ki for CB1 receptor to Ki for CB2 receptor
VALUE KIND: Ratio Ki
Could you respond with only the numeric value?

Use these answered entries as a reference point.
>  <STRUCTURE SMILES>
CCCCCc1cc(C#N)c2c(c1)OC(C)(C)[C@@H]1CCC(C)=C[C@@H]21

>  <Ratio Ki>
3

$$$$
>  <STRUCTURE SMILES>
CCCCCCC(C)(C)c1cc(NC(C)=O)c2c(c1)OC(C)(C)[C@@H]1CCC(C)=C[C@@H]21

>  <Ratio Ki>
6

$$$$

For the next question, use this molecule.
Give the measured Ratio Ki of "CCCCCc1cc(N)c2c(c1)OC(C)(C)[C@@H]1CCC(C)=C[C@@H]21" . 3
